From: the array DNA melting data of Ke et al. (doi:10.1101/2024.01.08.574731)

# protocolDescription: melting temperature; fluorescence melt of hairpins on a sequencing array, two-state fit, raised by 9.35 °C to match UV melts
# testContext: sodium 0.088 M
readoutName: Tm (°C)
# output: bare number, implied unit °C

Reported Tm ( GCAGAGCGAAAGCGCCGC ((.(.((....)).).)) ) = 64

Reported Tm ( GATCCCGGCTGGGATC ((((((....)))))) ) = 60.4

Reported Tm ( GCTAGCGGAAACGTTAGC ((((.((....)).)))) ) = 51.3

Reported Tm ( GATCCGTTTCGGATC ((((((...)))))) ) = 63

Reported Tm ( GCGGTAGGAAACTGTCGC (((..((....))..))) ) = 43.8

Reported Tm ( GATCTAGGTATAGATC ((((((....)))))) ) = 47.5

Reported Tm ( GCTCAGCGAAAGCCGAGC ((((.((....)).)))) ) = 63.5

Reported Tm ( GTACACGGAAACGTATAC (((.(((....))).))) ) = 33.6

Reported Tm ( GAAACCGGAAACGATTTC ((((.((....)).)))) ) = 34

Reported Tm ( GCAAGGCGAAAGCATAGC ((.(.((....)).).)) ) = 39.6

Reported Tm ( GCCCTGCGAAAGCGTGGC (((..((....))..))) ) = 55.6

Reported Tm ( GATCTCAACGGAGATC ((((((....)))))) ) = 52.3
